System: E. coli TESEC Alr+ wild-type control
Assay: growth (OD600 after 10 h); higher = more growth (less inhibition)
Details: compound 0.1 mM; raw OD600 reference: median of DMSO wells 0.241, cell-free background 0.041
Where a name gives a salt, the structure may show the parent alone.
Readings of growth for the listed compounds
Response field accepts a number only; no unit should be typed.

# COMPOUND, ENDPOINT RESULT
rows = [
    ("CC[C@H]1OC(=O)C[C@@H](O)[C@H](C)[C@@H](O[C@@H]2O[C@H](C)[C@@H](O[C@H]3C[C@@](C)(O)[C@@H](O)[C@H](C)O3)[C@H](N(C)C)[C@H]2O)[C@@H](CC=O)C[C@@H](C)C(=O)/C=C/C(C)=C/[C@@H]1CO[C@@H]1O[C@H](C)[C@@H](O)[C@@H](OC)[C@H]1OC", 0.0413),
    ("CC(C)OC(=O)CCC/C=C\\C[C@@H]1[C@@H](CC[C@@H](O)CCc2ccccc2)[C@H](O)C[C@@H]1O", 0.0604),
]

// next item, growth requested
So what does the record say about growth for CCOC(=O)[C@@](C)(N)Cc1ccc(O)c(O)c1 [Methyldopate hydrochloride] ?
0.106
